- System: 231-MB
- experiment summary: Cytotoxicity assay (MTS, 72 hours)
- Format: cell-based
- run conditions: Table 3, Breast
// reported IC50 per item
Express it in µM; write the number only.

compound: CCC(CC)(NC(=O)/C(C#N)=C/c1cccc(Cl)n1)c1ccc(OCCOCCN2CCN(C)CC2)cc1
value type: IC50
result unit: µM
quantitative result: 1.5

Please fill in: IC50 reported for C[C@H](NC(=O)/C(C#N)=C/c1cccc(Br)n1)c1ccccc1 [WP1066, reference compound] = 1.2

###

- System: WM35
- experiment summary: Cytotoxicity assay (MTS, 72 hours)
- Format: cell-based
- run conditions: Table 3, Melanoma
- Description: Tumor cell lines were maintained in DMEM with 10% fetal bovine serum (FBS), 100 microg/ml streptomycin, and 100 IU/ml penicillin in 5% CO2 at 37° C. For the cytotoxicity assays, 1,500 tumor cells were plated into 96-well flat-bottom tissue culture plates in complete medium (see Tables 2 and 3). After 20 hours fresh media containing different concentrations of compounds disclosed herein added. […]
value type: IC50 (µM)
Express it in µM; write the number only.

Please fill in: IC50 reported for C[C@H](NC(=O)/C(C#N)=C/c1cccc(Br)n1)c1ccccc1 [WP1066, reference compound] = 1.3
